# System: T-47D breast
# Procedure Summary: NCI-60 one-dose screen, 48 h (100 = growth as untreated, 0 = no growth, -100 = all killed)
# Applied Conditions: 10 µM
About 83,000 compounds went through this panel and 20% of them were active in at least one assay; those are over-represented in the sample as a whole.
Entries and their growth
Endpoint Name: growth (%)

1) COc1ccc2c(c1)N=C(C(=O)O)/C2=C/c1sc(Nc2ccc(O)cc2)nc1O :: 45.4
2) N#Cc1c(NC(=O)c2ccc(C(F)(F)F)cc2)sc2c1CCC(O)=C2 :: 22.9
3) Nc1nc(Nc2ccc(Cl)cc2)nn1Cc1cccc(Br)c1 :: 19.3
4) CC1=C(c2cc(-c3ccc(Cl)cc3)c(C#N)c(N)n2)C(c2ccccc2)NC(=S)N1 (centres undefined) :: 54.5
5) CC1(C)[C@@H](NCO)CC[C@]2(C)[C@H]3C(=O)C=C4[C@@H]5C[C@](C)(CO)CC[C@]5(C)CC[C@@]4(C)[C@]3(C)CC[C@@H]12 :: 63.9
6) O=c1c2ccccc2nc(COc2ccccc2)n1/N=C/c1ccc(N2CCCC2)cc1 :: 57.7
7) CC(C)CCSc1nc(NC2CC2)c(C#N)c(-c2ccc(C(C)C)cc2)n1 :: 100
8) O=C(CSc1nnc(-c2c[nH]c3ccccc23)n1-c1ccccc1)Nc1ccc(C(=O)/C=C/c2ccccc2Cl)cc1 :: 43.1
9) Cn1cc(-c2cc(N)n3nc(-c4c[nH]c5ccc(Br)cc45)cc3n2)c2cccnc21 :: -75.7

====

# Test system: SN12C renal
# Procedure Summary: NCI-60 one-dose screen, 48 h (100 = growth as untreated, 0 = no growth, -100 = all killed)
# Applied Conditions: 10 µM
Compounds without any hit were thinned out: in the full panel of roughly 83,000, 20% have a hit.
Entries and their growth
Endpoint Name: growth (%)

1. CC1(c2ccccc2)NC(=O)N(CC(=O)Nc2ccc(C(=O)/C=C/C=C/c3ccccc3)cc2)C1=O (centres undefined) :: 66.9
2. CN1CCN(Cc2ccc(C(=O)Nc3cccc(Nc4ccc5cc(O)ccc5n4)c3)cc2C(F)(F)F)CC1 :: -64
3. O=C(CN1CCN(c2ncnc3c2cnn3-c2ccccc2)CC1)Nc1nncs1 :: -54.7
4. O=C(O)CCCCCCCCCCN1C(=O)/C(=C/c2cnc(-c3ccc(Cl)cc3)s2)SC1=S :: -57.4
5. COc1cccc(-c2nn(-c3ccccc3)cc2-c2ccnc(NCCCNC(=O)Nc3ccc(F)cc3)c2)c1 :: 23.6
6. CN1CCCN(Cc2ccc(C(=O)Nc3cccc(Nc4ccc5cc(O)ccc5n4)c3)cc2C(F)(F)F)CC1 :: 86.8
7. COc1ccc(N2N=C(c3ccc4c(c3)OCCO4)CC2c2cccc(NC(=O)CCCNS(=O)(=O)c3ccc(F)cc3)c2)cc1 (centres undefined) :: 74.8
8. CCOc1ccc(/C=N/NC(=O)Cn2nc(Cc3ccccc3)c3onc(C)c3c2=O)cc1 :: 8.3
9. O=C1Nc2ccc(Cl)cc2/C1=C/c1cccc(OCc2ccccn2)c1 :: -50.6

====

Entries and their growth
# System: A498 renal
# Procedure Summary: NCI-60 one-dose screen, 48 h (100 = growth as untreated, 0 = no growth, -100 = all killed)
# Applied Conditions: 10 µM
Compounds without any hit were thinned out: in the full panel of roughly 83,000, 20% have a hit.
Endpoint Name: growth (%)

1. C/C(=N\NC(N)=S)c1ccc(Nc2nc(SC(C)C)nc(-c3ccccc3)c2C#N)cc1 :: 123
2. CC1(c2ccccc2)NC(=O)N(CC(=O)Nc2ccc(C(=O)/C=C/c3ccc(Br)cc3)cc2)C1=O (stereo not given) :: 71.1
3. Cc1ccc2nc(COc3ccc(C(=O)NNC(=S)NC(=O)c4ccccc4)cc3)[nH]c2c1 :: 97.3
4. CC1=N/C(=C\c2ccc(N(C)C)cc2)C(=O)N1CCc1ccc(S(N)(=O)=O)cc1 :: 102
5. COc1ccc(CN2[C@@H](C(=O)NCc3ccc(C(=O)NO)cc3)Cc3c([nH]c4ccccc34)[C@@H]2C2CC2)cc1 :: -5.06

====

# System: OVCAR-4 ovarian
# Procedure Summary: NCI-60 one-dose screen, 48 h
# Applied Conditions: 10 µM
About 83,000 compounds went through this panel and 20% of them were active in at least one assay; those are over-represented in the sample as a whole. Calls of active or inactive are those of the source. The calls were made as follows: active = growth percent below 10; inactive = the rest.
Labels: label 1 for active, label 0 for inactive

1) O=C(CNc1nc(-c2ccccc2)cs1)Nc1cccc([N+](=O)[O-])c1 :: label 1
2) Cn1cc(/C=N/Nc2cccc(Cl)n2)c2ccccc21 :: label 0
3) CC(C)(C)Nc1nc2cc(Cl)c(Cl)cc2nc1S(C)(=O)=O :: label 1
4) CCCn1c(O)c(N=Nc2nc(-c3cc4ccccc4oc3=O)cs2)c2cc(Br)ccc21 :: label 0
5) O=C(CSc1nnc(-c2ccc3nc(-c4ccc(Cl)cc4)[nH]c3c2)o1)Nc1ccc(Cl)cc1 :: label 1
6) C=C(C)[C@@H]1CC[C@]2(C(=O)OC)CC[C@]3(C)[C@H](CC[C@@H]4[C@@]5(C)CC[C@H](N)C(C)(C)[C@@H]5CC[C@]43C)[C@@H]12 :: label 1
7) O=C(c1ccc(-n2c(=O)[nH]c3ccccc3c2=O)cc1)N1CCOCC1 :: label 0
8) COc1ccc([C@H]2C(C(=O)c3ccc(Cl)cc3)C3(N[C@@H]2c2ccccc2)C(=O)Nc2ccc(Cl)cc23)cc1 (some centres not stated) :: label 0
9) COc1cccc(COc2ccc(/C=C3\Oc4cc(O)ccc4C3=O)cc2)c1 :: label 1
10) O=C(c1ccc([N+](=O)[O-])c([N+](=O)[O-])c1O)n1[nH]c(=O)c2ccccc2c1=O :: label 0
11) O=C(Nc1ccncc1)c1ccc(-n2c(=O)[nH]c3ccccc3c2=O)cc1 :: label 0
12) Cc1ccc(NC(=O)c2ccc(-n3c(=O)[nH]c4ccccc4c3=O)cc2)cc1 :: label 0
13) CCOC(=O)CNC(=O)CN(Cc1ccccc1)C(=O)[C@@]1(C)CCC[C@]2(C)[C@H]3CC4C(C(C)C)=C[C@]3(CC[C@H]21)[C@@H]1C(=O)CCC(=O)[C@H]41 :: label 0
14) COc1cccc2nc(Nc3cccc(NC(=O)c4ccc(CN5CCCN(C)CC5)c(C(F)(F)F)c4)c3)ccc12 :: label 1
15) O=C(c1ccc(O)cc1)C1[C@H](c2ccc(Br)cc2)[C@@H](c2ccccc2)NC12C(=O)Nc1ccc(Br)cc12 (some centres not stated) :: label 0
16) COC(=O)c1c(C(=O)OC)c2n(c1C)[C@@H]([C@@H](C)[C@H]1CC[C@H]3[C@@H]4CCC5=CC(=O)CC[C@]5(C)[C@H]4CC[C@]13C)SC2 :: label 0
17) CC(=O)Nc1ccc(-c2cn(-c3cccc(C(=O)Nc4cccc(OC(F)(F)F)c4)c3)nn2)cn1 :: label 0

====

# Tested on: SW-620 colon
# Procedure Summary: NCI-60 one-dose screen, 48 h (100 = growth as untreated, 0 = no growth, -100 = all killed)
# Applied Conditions: 10 µM
The panel holds about 83,000 compounds, 20% with a hit somewhere; the sample as a whole holds those more often.
Rule: growth of 20% or more gives rule met; anything lower gives rule not met.

1. Nc1cc(-c2cccc(C(=O)NCc3ccc4c(c3)OCO4)c2)ccn1 :: rule met
2. CCOC(=O)CNC(=O)CN(Cc1ccccc1)C(=O)[C@@]1(C)CCC[C@]2(C)[C@H]3CC4C(C(C)C)=C[C@]3(CC[C@H]21)[C@@H]1C(=O)CCC(=O)[C@H]41 :: rule met
3. CN1CCN(Cc2ccc(NC(=O)c3cncc(C#Cc4cnc5ccc(N[C@H]6CCOC6)nn45)c3)cc2C(F)(F)F)CC1 :: rule not met
4. COc1ccc2[nH]c(=O)c(CSc3nccc(-c4ccc(Cl)cc4)n3)cc2c1 :: rule met
5. Cc1ccn2c(C(=O)c3ccc(Br)cc3)cc(-c3cc(-c4ccc(N(C)C)cc4)c(C#N)c(N)n3)c2c1 :: rule met
6. COc1cccc(-c2ccc(/C=N/NC(=O)c3[nH]c4ccc(Br)cc4c3-c3ccccc3)o2)c1 :: rule met
7. COc1ccc(-c2nc(S(=O)(=O)c3ccc(C)cc3)c(S(C)(=O)=O)o2)cc1 :: rule not met
8. O=C(c1ccc(O)cc1)C1[C@H](c2ccc(Br)cc2)[C@@H](c2ccccc2)NC12C(=O)Nc1ccc(Br)cc12 (some centres not stated) :: rule not met
9. O=C(NO)c1ccc(CN2CCN(c3nc(-c4ccccc4)c4ccccc4n3)CC2)cc1 :: rule not met
10. O=C(Cn1nc(-c2ccccc2)ccc1=O)NN1C(=O)c2ccccc2C1=O :: rule met
11. CC(=O)C1=C(C)NC(SCC(=O)Nc2ccc(S(=O)(=O)Nc3cc(C)on3)cc2)=NC1c1ccccc1 (configuration not stated) :: rule met
12. O=c1[nH]c2ccc(Cl)cc2cc1CSc1ccc(Nc2nccc(-c3ccc(Cl)cc3)n2)cc1 :: rule not met
13. CCOP(=O)(OCC)O[C@H]1CC[C@]2(C)[C@H]3CC[C@@H]4[C@@H]([C@](C)(O)CCC=C(C)C)CC[C@@]4(C)[C@]3(C)CC[C@H]2C1(C)C :: rule not met
14. CC(=O)Nc1ccc(-n2cnc3cc(-c4ccc(O)cc4)ccc32)cc1F :: rule met
15. CC1(C)CC[C@]2(C(=O)NCCCNCCCCNCCCN)CC[C@]3(C)C(=CC[C@@H]4[C@@]5(C)Cc6c([nH]c7ccccc67)C(C)(C)[C@@H]5CC[C@]43C)[C@H]2C1 :: rule met
16. Cc1cc2nc3c4ccccc4n(CCO)c3nc2cc1C :: rule met
17. COc1ccccc1[C@H]1C(C(=O)c2ccc(O)cc2)C2(N[C@@H]1c1ccccc1)C(=O)Nc1ccc(Br)cc12 (some centres not stated) :: rule not met
